Molecular target: T1, human monocarboxylate transporter 1 (MCT1) (human, UniProt P53985 1-500)
T1 construct: Multi-pass transmembrane transporter, endogenous on HEK WT / HEK293T cells and on primary human T and B cells in the assays; also called human MCT1; SLC16A1
T1 sequence: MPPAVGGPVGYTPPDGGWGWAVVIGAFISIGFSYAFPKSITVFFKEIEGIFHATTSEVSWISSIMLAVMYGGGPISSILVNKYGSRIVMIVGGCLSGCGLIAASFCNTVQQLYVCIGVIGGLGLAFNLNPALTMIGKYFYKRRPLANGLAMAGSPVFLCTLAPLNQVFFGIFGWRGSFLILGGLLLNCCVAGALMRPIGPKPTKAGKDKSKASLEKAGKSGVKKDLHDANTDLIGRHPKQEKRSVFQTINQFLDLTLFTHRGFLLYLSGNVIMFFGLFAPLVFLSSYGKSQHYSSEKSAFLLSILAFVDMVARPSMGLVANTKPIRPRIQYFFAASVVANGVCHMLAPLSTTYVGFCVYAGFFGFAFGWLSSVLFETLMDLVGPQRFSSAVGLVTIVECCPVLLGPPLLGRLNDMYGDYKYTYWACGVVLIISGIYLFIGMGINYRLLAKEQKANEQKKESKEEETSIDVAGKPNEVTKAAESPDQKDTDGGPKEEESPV
Experiment: competition MSD binding assay, antibody titrated with HEK WT cells expressing MCT1, apparent KD, screening at 25 C
Metric Name: pKd
API: returns pKd as number; meaning -log10 of concentration in mol/L.

In the examples that follow, each entry is paired with its recorded pKd.
anti-human MCT1 antibody Ab14 (antibody, human IgG1, kappa, V domains shown, IgG1EN backbone) VH: QVQLVQSGAEVKKPGASVKVSCTVSGRSLTNYHLQWVRQAPGQGLEWMGFIRSSGNTEYNSEFKSRVTMTRDTSTSTVYMELSSLRSEDTAVYYCARNRWYHGTYYSPGYYVMDPWGQGTLVTVSS VL: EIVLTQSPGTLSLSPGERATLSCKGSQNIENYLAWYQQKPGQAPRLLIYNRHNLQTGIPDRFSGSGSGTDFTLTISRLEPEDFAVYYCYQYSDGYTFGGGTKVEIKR : 8.88
anti-human MCT1 antibody Ab7 (antibody, human IgG1, kappa, V domains shown, IgG1EN backbone) VH: QVQLVQSGAEVKKPGASVKVSCTVSGRSRTNYHLQWVRQAPGQGLEWMGFIRSSGNTEYNSEFKSRVTMTRDTSTSTVYMELSSLRSEDTAVYYCARNRWYHGTYYSPGYYVMDAWGQGTLVTVSS VL: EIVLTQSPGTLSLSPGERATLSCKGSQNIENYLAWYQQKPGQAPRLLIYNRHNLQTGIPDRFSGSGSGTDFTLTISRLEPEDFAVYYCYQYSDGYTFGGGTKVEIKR : 9.33

Dear colleague, please send me the reported pKd for anti-human MCT1 antibody Ab9 (antibody, human IgG1, kappa, V domains shown, IgG1EN backbone) VH: QVQLVQSGAEVKKPGASVKVSCTVSGRSLTNYHIQWVRQAPGQGLEWMGFIRSSGNTEYNSEFKSRVTMTRDTSTSTVYMELSSLRSEDTAVYYCARNRWYHGTYYSPGYYVMDAWGQGTLVTVSS VL: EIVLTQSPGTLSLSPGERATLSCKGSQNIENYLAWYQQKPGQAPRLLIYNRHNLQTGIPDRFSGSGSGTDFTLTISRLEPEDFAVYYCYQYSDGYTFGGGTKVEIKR when you can.
8.34
